# Target Desc: T1, Δ10ct-PDZ3 (PSD-95 residues 302-393, without the α3 helix) (UniProt P31016 302-393)
# T1 construct: PSD-95 third PDZ domain truncated of its ten C-terminal residues (α3 helix), residues 302-393 of the full PSD-95 protein; 15N-labelled for NMR; source: E. coli BL21/DE3, purified
# T1 sequence (P31016 302-393, stated change not applied): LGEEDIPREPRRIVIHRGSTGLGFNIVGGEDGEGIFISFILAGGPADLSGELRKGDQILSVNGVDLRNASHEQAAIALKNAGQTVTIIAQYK
# Test Protocol: ITC; KKETAV (900 µM; 3 mM for D332P-PDZ3) injected into the protein in the cell (70 µM; 200 µM for D332P-PDZ3); 25°C; 50 mM potassium phosphate pH 7.5; single set of identical sites model
# Condition Details: both partners purified
Measure: Kd (µM)
Respond with the bare value in µM.

Problem: Determine its reported Kd: KKETAV (residues numbered from 0 (C-terminal Val) to -5 (N-terminal Lys); also called KKETAV ligand; consensus hexapeptide; source: bought: Peptide 2.0 (USA)) [KKETAV hexapeptide]
Result: 3.6
